Hi there, I'd appreciate the recorded interference binding, % of Reference Sequence for every entry that follows.
# Assay system: T1, purified interference factor(s) from Donor A (human)
# T1 construct: also called interference in serum from Donor A
# Assay explanation: SPR, interference factor immobilized; % of Fig. 9 reference
Hi! Could you send only the number? It should be in %, unit omitted.

Could you share which interference binding, % of Reference Sequence value was measured for SEQ ID NO: 86 (VHH) VHH: EVQLVESGGGSVQPGGSLRLSCAASRSIGRLDRMGWYRHRPGEPRELVATITGGSSINYGDSVKGRFTISIDNSKNTVYLQMNSLRPEDTAVYYCNFNKYVTSRDTWGQGTLVQVSS ?
76

Name the reported interference binding, % of Reference Sequence value associated with the binder SEQ ID NO: 65 (VHH) VHH: EVQLVESGGGLVQAGGSLRLSCAASRSIGRLDRMGWYRHRPGEPRELVATITGGSSINYGDSVKGRFTISIDNSKNTVYLQMNSLRPEDTAVYYCNFNKYVTSRDTWGQGTLVTVSS
73

Which interference binding, % of Reference Sequence reading was recorded for the binder SEQ ID NO: 38 (VHH) EVQLVESGGGLVQPGGSLRLSCAASGFTFSSYAMSWVRQAPGKGLEWVSGIKSSGDSTRYAGSVKGRFTISRDNAKNTLYLQMNSLRPEDTAVYYCAKSRVSRTGLYTYDNRGQGTLVTVSSGGGGSGGGGSGGGGSGGGGSEVQLVESGGGLVQPGGSLRLSCAASGRTFNNYAMGWFRQAPGKEREFVAAITRSGVRSGVSAIYGDSVKDRFTISRDNAKNTLYLQMNSLRPEDTAVYYCAASAIGSGALRRFEYDYSGQGTLVTVSSA ?
9

So what's the measured interference binding, % of Reference Sequence for this one? SEQ ID NO: 74 (VHH) VHH: EVQLVESGGGLVQPGGSLRLSCAASRSIGRLDRMGWYRHRPGEPRELVATITGGSSINYGDSVKGRFTISIDNSKNTVYLQMNSLRPEDTAVYYCNFNKYVTSRDTWGQGTLVTVSS
4
